System: U-251
protocol: NCI tumour cell line growth inhibition, 48 h
Activity calls are given as the source filed them. Rule as the data show it: active = GI50 up to about 1.1 µM and inactive = higher.
# valid calls are active, inactive; nothing else

The following compounds have reported results that may help.
CCOc1ccc(C(C)c2cc3c(cc2OC)OCO3)cc1 (centres undefined) : active
COc1ccc(C2S/C(=C\c3cccc([N+](=O)[O-])c3)C(=O)N2NC(=O)Cc2ccccc2)cc1 (centres undefined) : inactive
CCOC(=O)Cc1c(C(=O)OCC)[n+]([O-])c2cc(Cl)c(Cl)cc2[n+]1[O-] : inactive
CCOC(=O)CN1C(=O)c2c(c(C)n(-c3ccccc3)c2C)C1=O : inactive
COc1nc(NC2OC(COC(C)=O)C(OC(C)=O)C(OC(C)=O)C2OC(C)=O)c(/N=C/C=N/c2c(NC3OC(COC(C)=O)C(OC(C)=O)C(OC(C)=O)C3OC(C)=O)nc(OC)n(C)c2=O)c(=O)n1C (centres undefined) : inactive

Can you look up the reported call for Nc1ccc(Cc2ccc(N)c(C(=O)O)c2)cc1C(=O)O for me?
inactive

In this assay, the call recorded for C=C1C(=O)OC2/C=C(\C)C(=O)CC3OC(C)(C)OC3(C)CC(OC(=O)/C(C)=C/C)C12 (centres undefined) was what?
inactive

How was Cc1cc(=O)oc2cc(O)c(CN(C)CC(=O)O)cc12 classified in this test?
inactive

Per the assay record, what outcome was assigned to CC(=O)Nc1ccc(-c2nnc(SCC(=O)Nc3ccccc3[N+](=O)[O-])o2)cc1 ?
inactive

###

// reported GI50 per item
System: CAKI-1
protocol: NCI tumour cell line growth inhibition, 48 h
Calls of active or inactive are those of the source. Rule as the data show it: active = GI50 up to about 1.1 µM and inactive = higher.

Would you please look over these solved cases?
O=C(CCC(=O)Nc1cccc(C(F)(F)F)c1)CC(=O)c1ccc2ccccc2c1 : > 100 µM (inactive)
CCCn1cnc2c(SCc3ccc(Cl)cc3)nc(N)nc21 : 24.8 µM (inactive)

Alright, here's another compound for you.
Reported GI50 for CC(=O)NNc1nc(C)c(C(=O)NNC(=O)C(=O)Nc2ccc(Cl)c([N+](=O)[O-])c2)s1 : what is it?
> 100 µM (inactive)

###

Measured GI50 accompanies every entry in the list below.
System: XF498
protocol: NCI tumour cell line growth inhibition, 48 h
Calls of active or inactive are those of the source. Rule as the data show it: active = GI50 up to about 1.1 µM and inactive = higher.

Consider the following illustrative entries.
O=[N+]([O-])c1ccc(C2N3CCCCC3[C@@H]3c4[nH]c5ccccc5c4CCN23)cc1 (stereo not given in full) : 17.8 µM (inactive)
COc1ccc(/C=C/C(=O)c2c(-c3ccccc3)nn(C)c(=O)c2N2CCCC2)cc1 : > 100 µM (inactive)
Cc1[nH]c2ccccc2c1-c1n[nH]c(=O)c2ccccc12 : 27.1 µM (inactive)

Hi! What's the reported GI50 for CCCCOC(=O)CN1C(=O)c2ccccc2C1=O on XF498?
> 100 µM (inactive)

###

Tested on: HCT-116
protocol: NCI tumour cell line growth inhibition, 48 h
Active and inactive are the calls of the source. Cut-off read from the data, not from the text of the source: active = GI50 up to about 1.1 µM and inactive = higher.
observed-property: GI50

// worked examples, GI50 included
CCOC(=O)c1cc2nc3ccccc3c(=O)n2c2ccccc12 : > 10 µM (inactive)
OC(c1ccc(F)cc1)C(F)(F)c1nc(-c2ccccc2)no1 (centres undefined) : 19.1 µM (inactive)

Value lookup for GI50; key = Cc1ccc(S(=O)(=O)N/N=C(\C(=O)Nc2cccc([N+](=O)[O-])c2)c2nc3ccc([N+](=O)[O-])cc3nc2O)cc1
27.5 µM (inactive)

Item under review: CC(=O)Nc1ccc(-c2nnc(SCC(=O)Nc3ccccc3[N+](=O)[O-])o2)cc1 . Reported GI50?
> 100 µM (inactive)

###

Tested on: A549
protocol: NCI tumour cell line growth inhibition, 48 h
Active and inactive are the calls of the source. No stated cut-off is given here; in the data, active = GI50 up to about 1.1 µM and inactive = higher.
Catalogue of GI50 values

# example entries with known answers
CCC1=NC(C(F)(F)F)(C(F)(F)F)N=C(N2CCOCC2)O1 : > 100 µM (inactive)
Cc1cc(S(=O)(=O)n2ccnc2O)c(SCCCN(C)C)cc1Cl : > 100 µM (inactive)
COc1cc2c(cc1OC)C(=O)/C(=C/c1cc(Cl)cc(Cl)c1)C2 : 12.1 µM (inactive)

Given the compound O=C(/C=C/c1ccc(Cl)c(Cl)c1)Oc1ccc(/C=C2\CCCCC2=O)cc1 , what is its reported GI50?
> 100 µM (inactive)

Quick check: GI50 of O=C(c1cccnc1)N1N=C(c2ccc3c(c2)OCO3)CC1(O)c1cc(F)c(Cl)cc1Cl (stereo unspecified) ?
28.6 µM (inactive)

// returns reported GI50 for input CCCN(CCc1ccc(-c2ccccc2)cc1)CCc1ccc2nn[nH]c2c1
13.1 µM (inactive)

# get_value(readout='GI50', item= O=C/C=C/c1ccco1 )
> 100 µM (inactive)

Suppose we examine the compound O=C1N[C@@H](c2c[nH]c3ccc(Br)cc23)C(=O)N[C@H]1c1c[nH]c2ccc(Br)cc12 ; what GI50 value has been reported?
13.8 µM (inactive)

Consider the compound CCCCCC(=O)Nc1[nH]nnc1C#N and give its measured GI50.
> 100 µM (inactive)

Fill blank: measured GI50 of the compound Cc1ccc(/N=N/c2c(C)nn(-c3ccccc3)c2-c2ccccc2)c(Br)c1 is ____.
> 100 µM (inactive)

Can you look up the measured GI50 of NC(=O)c1ccc(NCC2=CC(=O)C=CC2=O)cc1 for me?
> 100 µM (inactive)

###

Tested on: RXF 393
protocol: NCI tumour cell line growth inhibition, 48 h
Activity calls are given as the source filed them. Cut-off read from the data, not from the text of the source: active = GI50 up to about 1.1 µM and inactive = higher.
Answer with one of the outcomes yes (1) (active), no (0) (inactive)

Cc1ccccc1NC(=O)C(=O)Cc1nc2ccccc2s1 : no (0)
Nc1ccccc1C(=O)NNC(=O)c1ccccc1N : no (0)
CCCCCCCCCCCCCCCCCCN(C)CC(COC)OP(=O)([O-])OCC[N+](C)(C)C (stereo unspecified) : yes (1)

Returns: the outcome recorded for CC1(C)CC2=NO[Se]3=C2C(=NO3)C1 in this assay.
no (0)

Kindly provide the recorded test outcome for the following compound: COc1ccc(C(=O)OC2C=COC(C)C2OC(=O)c2ccc(OC)cc2)cc1 (stereo unspecified)
no (0)

Test call, this compound: CNS(=O)(=O)NNS(=O)(=O)c1ccc(F)cc1
no (0)

Given NC1=NNC2(C(N)=N1)c1ccccc1-c1ccccc12 , state the outcome it received in this test.
no (0)

Name the outcome recorded for CN1C(NN)=NS(=O)(=O)c2ccccc21 in the assay.
no (0)

###

Recorded measurements of GI50, one per entry
Tested on: HT-29
protocol: NCI tumour cell line growth inhibition, 48 h
Calls of active or inactive are those of the source. Rule as the data show it: active = GI50 up to about 1.1 µM and inactive = higher.

CC(=O)Nc1ccc(-c2nnc(SCC(=O)Nc3ccccc3[N+](=O)[O-])o2)cc1 : > 100 µM (inactive)
COC(C/C=C\C=C\CC/C=C/CC(C)/C=C/C(=C\C(=O)O)CC(=O)O)/C(C)=C\C=C(/C)C(=O)O (stereo unspecified) : > 100 µM (inactive)
CCCCc1ccc(Nc2nc3c(ncn3COCCBr)c(=O)[nH]2)cc1 : > 100 µM (inactive)
COc1cc(/C=C/C(=O)c2sc(Nc3ccccc3)nc2C)ccc1O : 97.9 µM (inactive)
CC(C)C(C(=O)O)N(CC1(O)OCC(O)C(O)C1O)N=O (stereo unspecified) : > 100 µM (inactive)

Using the record for CN1CCCCC1CCN1CCCCC1 (stereo unspecified) , report its GI50.
> 100 µM (inactive)

Name the reported GI50 value associated with the molecule O=P1(NCCCl)OCCCN1CCCl (stereo unspecified) [IFOSFAMIDE]
406 µM (inactive)

# input molecule: Nc1ccc(C(=O)N/C(=C\c2ccc3c(c2)OCO3)c2nc3ccc4c(c3[nH]2)C(=O)c2ccccc2C4=O)cc1 ; wanted: its GI50
40.6 µM (inactive)

Field request: GI50 | item: Cc1cc(O)cc2c1c(=O)c1ccccc1n2C
> 100 µM (inactive)

Reported GI50, molecule COC(=O)C1=C(C(=O)OC)C2=S(SC3=C2CCCC3)S1 (stereo unspecified) : ____
18.7 µM (inactive)

Record request: GI50 value, item Cc1cc(S(=O)(=O)O)ccc1/N=N/c1ccc(/N=N/c2c(O)ccc3ccccc23)c(C)c1
70.3 µM (inactive)

###

Tested on: NCI-H460
protocol: NCI tumour cell line growth inhibition, 48 h
Active and inactive are the calls of the source. No stated cut-off is given here; in the data, active = GI50 up to about 1.1 µM and inactive = higher.
Returns: one label drawn from active, inactive

Solved entries:
CCOC(=O)c1c(O)cc(=O)[nH]c1N1CCOCC1 : inactive
CCC1CCCCN1CC(C(C)=O)C(c1ccccc1)c1c(O)c2ccccc2oc1=O (stereo not given) : inactive
COC(=O)C12C(=O)CC3CCC1C32C(=O)OC (stereo not given) : inactive
S=C=NCc1ccccc1 [BENZYL ISOTHIOCYANATE] : inactive
Cc1cc(O)cc2c1c(=O)c1ccccc1n2C : inactive

Please state the recorded outcome for this compound: COC(=O)CCC(=O)c1ccc2c(c1)CC1(C2)Cc2ccc3c(c2C1)CCCC3=O (stereo not given)
inactive

Query: recorded result category for CC1=[N+]([O-])C(C)(C)N(O)C1(C)C in this test
inactive

Recorded test call requested for O=C(NN1C(=O)CS(=O)(=O)C1c1cccc(F)c1)c1ccncc1 (stereo not given)
inactive

Where do these numbers come from? They come from ChEMBL document CHEMBL1201862.
